Values from ChEMBL document CHEMBL5303573

Method: The drug is tested on Bacteroides fragilis strain: ATCC43859 for biotransformation. The drug concentrations were measured before and after a 12-h incubation by liquid-chromatography-coupled mass spectrometry (LC–MS)
Recorded conditions: 2 µM
Experimental endpoint: Bacterial Biotransformation

                                    molecule        experimental_endpoint            reported_value
 0  COc1cc2nc(N3CCN(C(=O)c4ccco4)CC3)nc(N)c2cc1OC  Bacterial Biotransformation  Compound NOT metabolized
 1  Fc1ccc([C@@H]2CCNC[C@H]2COc2ccc3c(c2)OCO3)cc1  Bacterial Biotransformation  Compound NOT metabolized
 2  CC(C)N(CCC(C(N)=O)(c1ccccc1)c1ccccn1)C(C)C.O=P(O)(O)O (configuration not stated) [DISOPYRAMIDE PHOSPHATE]  Bacterial Biotransformation  Compound NOT metabolized
 3  COc1ccccc1OCCNCC(O)COc1cccc2[nH]c3ccccc3c12 (configuration not stated)  Bacterial Biotransformation  Compound NOT metabolized
 4  COc1cc2nc(N3CCN(C(=O)C4COc5ccccc5O4)CC3)nc(N)c2cc1OC.CS(=O)(=O)O (configuration not stated) [DOXAZOSIN MESYLATE]  Bacterial Biotransformation  Compound NOT metabolized
 5       CCS(=O)(=O)CCn1c([N+](=O)[O-])cnc1C  Bacterial Biotransformation      Compound metabolized
 6     CC(=O)OCC(CCn1cnc2cnc(N)nc21)COC(C)=O  Bacterial Biotransformation      Compound metabolized
 7     COc1ccc(Cc2nccc3cc(OC)c(OC)cc23)cc1OC  Bacterial Biotransformation  Compound NOT metabolized
 8              CCCN(CCC)CCc1cccc2c1CC(=O)N2  Bacterial Biotransformation  Compound NOT metabolized
 9  CN1CCOC(c2ccccc2)c2ccccc2C1 (configuration not stated)  Bacterial Biotransformation  Compound NOT metabolized
10  CC(C)(C)NCC(O)c1cc(Cl)c(N)c(Cl)c1 (configuration not stated)  Bacterial Biotransformation  Compound NOT metabolized
11                 CNNCc1ccc(C(=O)NC(C)C)cc1  Bacterial Biotransformation      Compound metabolized

---

Recorded conditions: bifidobacterium adolescentis, 12 h, 2 µM
Description: The drug is tested on Bifidobacterium adolescentis strain: ATCC 15703 for biotransformation. The drug concentrations were measured before and after a 12-h incubation by liquid-chromatography-coupled mass spectrometry (LC–MS)
Experimental endpoint: Bacterial Biotransformation

Compound	Reported value
CC(C)(C)NCC(O)COc1cccc2c1CC(O)C(O)C2 (stereo not drawn)	Compound NOT metabolized
COC(=O)[C@H](c1ccccc1Cl)N1CCc2sccc2C1.O=S(=O)(O)O [CLOPIDOGREL BISULFATE]	Compound NOT metabolized
CCN(CC)C(=O)C1(c2ccccc2)CC1CN (stereo not drawn)	Compound NOT metabolized
Nc1nc(NC2CC2)c2ncn([C@H]3C=C[C@@H](CO)C3)c2n1.Nc1nc(NC2CC2)c2ncn([C@H]3C=C[C@@H](CO)C3)c2n1.O=S(=O)(O)O [ABACAVIR SULFATE]	Compound NOT metabolized
CNNCc1ccc(C(=O)NC(C)C)cc1	Compound NOT metabolized
CCN(CC)C(=O)/C(C#N)=C/c1cc(O)c(O)c([N+](=O)[O-])c1	Compound metabolized
NC12CC3CC(CC(C3)C1)C2	Compound NOT metabolized
CC(=O)Nc1ccc(OC(C)=O)cc1 [DIACETAMATE]	Compound metabolized

---

Method: The drug is tested on Ruminococcus gnavus strain: ATCC29149 for biotransformation. The drug concentrations were measured before and after a 12-h incubation by liquid-chromatography-coupled mass spectrometry (LC–MS)
Recorded conditions: mediterraneibacter gnavus, 2 µM
Experimental endpoint: Bacterial Biotransformation

                                   compound            reported_value
0  Cc1nc(Nc2ncc(C(=O)Nc3c(C)cccc3Cl)s2)cc(N2CCN(CCO)CC2)n1.O [DASATINIB]  Compound NOT metabolized
1   CC12CC3CC(C)(C1)CC(N)(C3)C2 [MEMANTINE]  Compound NOT metabolized
2  CC(Oc1c(Cl)cccc1Cl)C1=NCCN1 (stereo unspecified) [LOFEXIDINE]      Compound metabolized
3  COC(=O)C(c1ccccc1)C1CCCCN1 (stereo unspecified) [METHYLPHENIDATE]  Compound NOT metabolized
4  CCc1nc(N)nc(N)c1-c1ccc(Cl)cc1 [PYRIMETHAMINE]  Compound NOT metabolized
5  C[C@]12CCC(=O)C=C1[C@@H]1C[C@@H]1[C@H]1[C@@H]3[C@@H]4C[C@@H]4[C@@]4(CCC(=O)O4)[C@@]3(C)CC[C@@H]12 [DROSPIRENONE]      Compound metabolized
